meta.source: patent US3983103A

Test system: Diplococcus pneumoniae
Assay: antibacterial spectrum in vitro (Table I), MIC
Assay type: cell-based
parameter: MIC (µg/mL)
Kindly answer with a numeric value in µg/mL, unit omitted.

MIC measured on CCC1OC(=O)C(C)C(OC2CC(C)(OC)C(O)C(C)O2)C(C)C(OC2OC(C)CC(N(C)C)C2O)C(C)(O)CC(C)C(NS(=O)(=O)c2ccc(C)cc2)C(C)C(O)C1(C)O (centres unmarked) [EAT] = 1.9

Measured MIC of CCC1OC(=O)C(C)C(OC2CC(C)(OC)C(O)C(C)O2)C(C)C(OC2OC(C)CC(N(C)C)C2O)C(C)(O)CC(C)C(NS(=O)(=O)c2ccc(Cl)cc2)C(C)C(O)C1(C)O (centres unmarked) [EACl] : 1.9

Record summary for CCC1OC(=O)C(C)C(OC2CC(C)(OC)C(O)C(C)O2)C(C)C(OC2OC(C)CC(N(C)C)C2O)C(C)(O)CC(C)C(NS(=O)(=O)c2ccc(NC(C)=O)cc2)C(C)C(O)C1(C)O (centres unmarked) [EAAc] : reported MIC = 1.9

Summary for this compound, CC[C@H]1OC(=O)[C@H](C)[C@@H](O[C@H]2C[C@@](C)(OC)[C@@H](O)[C@H](C)O2)[C@H](C)[C@@H](O[C@@H]2O[C@H](C)C[C@H](N(C)C)[C@H]2O)[C@](C)(O)C[C@@H](C)C(=O)[C@H](C)[C@@H](O)[C@]1(C)O [E, erythromycin, reference compound] : MIC is 62.5

Summary for this compound, CCC1OC(=O)C(C)C(OC2CC(C)(OC)C(O)C(C)O2)C(C)C(OC2OC(C)CC(N(C)C)C2O)C(C)(O)CC(C)C(NS(=O)(=O)c2ccc(Br)cc2)C(C)C(O)C1(C)O (centres unmarked) [EABr] : MIC is 3.9

---

Test system: Staphylococcus pyog. aureus
Test: antibacterial spectrum in vitro (Table I), MIC
Type: cell-based
parameter: MIC (µg/mL)
Field: numeric (µg/mL). Do not append units.

Reported MIC of CC[C@H]1OC(=O)[C@H](C)[C@@H](O[C@H]2C[C@@](C)(OC)[C@@H](O)[C@H](C)O2)[C@H](C)[C@@H](O[C@@H]2O[C@H](C)C[C@H](N(C)C)[C@H]2O)[C@](C)(O)C[C@@H](C)C(=O)[C@H](C)[C@@H](O)[C@]1(C)O [E, erythromycin, reference compound] : 62.5

MIC in this record for CCC1OC(=O)C(C)C(OC2CC(C)(OC)C(O)C(C)O2)C(C)C(OC2OC(C)CC(N(C)C)C2O)C(C)(O)CC(C)C(NS(=O)(=O)c2ccc(C)cc2)C(C)C(O)C1(C)O (centres unmarked) : 31.2

# MIC of CCC1OC(=O)C(C)C(OC2CC(C)(OC)C(O)C(C)O2)C(C)C(OC2OC(C)CC(N(C)C)C2O)C(C)(O)CC(C)C(NS(=O)(=O)c2ccc(NC(C)=O)cc2)C(C)C(O)C1(C)O (centres unmarked) = 15.6

MIC for CCC1OC(=O)C(C)C(OC2CC(C)(OC)C(O)C(C)O2)C(C)C(OC2OC(C)CC(N(C)C)C2O)C(C)(O)CC(C)C(NS(=O)(=O)c2ccc(Br)cc2)C(C)C(O)C1(C)O (centres unmarked) is 31.2

Summary for this compound, CCC1OC(=O)C(C)C(OC2CC(C)(OC)C(O)C(C)O2)C(C)C(OC2OC(C)CC(N(C)C)C2O)C(C)(O)CC(C)C(NS(=O)(=O)c2ccc(Cl)cc2)C(C)C(O)C1(C)O (centres unmarked) : MIC is 31.2
